- Tested on: human red blood cells (hRBC)
- Test Protocol: Hemolysis
- Assay type: cell-based
- Measurement Context: 100
Non-standard residues stand in square brackets, D forms with d. Residues, ends and D or L forms follow the SMILES beside them. Dab = NCC[C@H](N)C(=O)O; Aib = CC(C)(N)C(=O)O
# maps each entry to its Hemolysis at 100 μg/ml
Write the answer as a number in %, unit excluded.

CC[C@H](C)[C@@H]1NC(=O)[C@H](Cc2c[nH]c3ccccc23)NC(=O)[C@H]([C@@H](C)O)NC(=O)[C@@H]2CCCN2C(=O)[C@H]2CCCN2C(=O)[C@H](CCN)NC(=O)[C@H](CC(C)C)NC(=O)[C@H](CCN)NC(=O)[C@H](CCN)NC(=O)[C@H](Cc2c[nH]c3ccccc23)NC(=O)[C@H](CCN)NC(=O)[C@H](CCN)NC(=O)[C@H](CCCCN)NC(=O)[C@H](CCN)NC1=O [Example 7] (cyclo(TWI[Dab]K[Dab][Dab]W[Dab][Dab]L[Dab][dP]P)) :: 0.8

[in] Recall the recorded Hemolysis at 100 μg/ml for CC[C@H](C)[C@@H]1NC(=O)[C@H](Cc2c[nH]c3ccccc23)NC(=O)[C@H]([C@@H](C)O)NC(=O)[C@@H]2CCCN2C(=O)[C@H]2CCCN2C(=O)[C@H](CCN)NC(=O)C(C)(C)NC(=O)[C@H](CCN)NC(=O)[C@H](CCN)NC(=O)[C@H](Cc2c[nH]c3ccccc23)NC(=O)[C@H](CCN)NC(=O)[C@H](CCN)NC(=O)[C@H](CCCCN)NC(=O)[C@H](CCN)NC1=O [Example 5] (cyclo(TWI[Dab]K[Dab][Dab]W[Dab][Dab][Aib][Dab][dP]P)) with human red blood cells (hRBC) and state it.
[out] 0.6

###

- Test system: P. aeruginosa ATCC 27853
- Type: cell-based, Pseudomonas aeruginosa
- Measurement Context: ATCC 27853
Non-standard residues stand in square brackets, D forms with d. Residues, ends and D or L forms follow the SMILES beside them. Dab = NCC[C@H](N)C(=O)O
Quantity: MIC P. aeruginosa ATCC 27853 (µg/mL)
Please reply with the bare figure in µg/mL and do not write the unit itself.

CC[C@H](C)[C@@H]1NC(=O)[C@H](Cc2c[nH]c3ccccc23)NC(=O)[C@H]([C@@H](C)O)NC(=O)[C@@H]2CCCN2C(=O)[C@H]2CCCN2C(=O)[C@H](CCN)NC(=O)[C@H](C)NC(=O)[C@H](CCN)NC(=O)[C@H](CCN)NC(=O)[C@H](Cc2c[nH]c3ccccc23)NC(=O)[C@H](CCN)NC(=O)[C@H](CCCCN)NC(=O)[C@H](CCCCN)NC(=O)[C@H](CCN)NC1=O [Example 25] (cyclo(TWI[Dab]KK[Dab]W[Dab][Dab]A[Dab][dP]P)) :: 0.05

We now examine a further compound.
[in] Which value of MIC P. aeruginosa ATCC 27853 has been reported for CC[C@H](C)[C@@H]1NC(=O)[C@H](Cc2c[nH]c3ccccc23)NC(=O)[C@H]([C@@H](C)O)NC(=O)[C@@H]2CCCN2C(=O)[C@H]2CCCN2C(=O)[C@H](CCN)NC(=O)[C@H](C)NC(=O)[C@H](CCN)NC(=O)[C@H](CCN)NC(=O)[C@H](Cc2c[nH]c3ccccc23)NC(=O)[C@H](CCC(N)=O)NC(=O)[C@H](CCN)NC(=O)[C@H](CCCCN)NC(=O)[C@H](CCN)NC1=O [Example 39] (cyclo(TWI[Dab]K[Dab]QW[Dab][Dab]A[Dab][dP]P)) in the records?
[out] 0.13
